Tested on: Caenorhabditis elegans
Protocol description: C. elegans nematode assay, overall rating over the Alzheimer and Parkinson tests
Type: in vivo
Conditions used: rating from the effective concentration in both tests
Quantity measured: Score

{"Molecule": "CC(C)(C)OC(=O)NCCCN [(104), reference compound]", "Value reported": "−"}
{"Molecule": "NC12CC3CC(CC(C3)C1)C2 [(107), 1-Adamantanamine, reference compound]", "Value reported": "−"}
